Source of measurements: the supplement of paper PMC5908809

Test system: normal primary NK cells, pool 3 (3 donors) (IL-2 2.5 ng/mL)
Experiment: drug sensitivity score (DSS) (DSS units); higher = more sensitive; extreme values may be limits of the assay
Settings: 72 h
property: drug sensitivity score
// keep it numeric: no unit symbol after the value

// returns reported drug sensitivity score for input N#CCNC(=O)c1ccc(-c2ccnc(Nc3ccc(N4CCOCC4)cc3)n2)cc1 [Momelotinib] (max concentration tested 10000 nM)
10.2

Which drug sensitivity score is reported for this compound? CO[C@@H](C(=O)N1Cc2[nH]nc(NC(=O)c3ccc(N4CCN(C)CC4)cc3)c2C1)c1ccccc1 [Danusertib] (max concentration tested 10000 nM)
1.46

Need drug sensitivity score, item Cn1c(Nc2ccc(C(F)(F)F)cc2)nc2cc(Oc3ccnc(-c4ncc(C(F)(F)F)[nH]4)c3)ccc21 [RAF265] (max concentration tested 1000 nM)
0

// drug sensitivity score lookup, key: CC(=O)OC[C@H]1O[C@@H]([S-])[C@H](OC(C)=O)[C@@H](OC(C)=O)[C@@H]1OC(C)=O.CCP(CC)CC.[Au+] [Auranofin] (max concentration tested 2500 nM)
17.4

Given the compound O=C(O)CC[C@H]1CC[C@@](c2cc(F)ccc2F)(S(=O)(=O)c2ccc(Cl)cc2)CC1 [MK-0752] (max concentration tested 1000 nM) , what is its reported drug sensitivity score?
0

Which drug sensitivity score reading was recorded for the compound CCC(C)(C)C(=O)O[C@H]1C[C@@H](C)C=C2C=C[C@H](C)[C@H](CC[C@@H]3C[C@@H](O)CC(=O)O3)[C@H]21 [Simvastatin] (max concentration tested 10000 nM) ?
0

Requested read-out: drug sensitivity score. Entry: NC(=O)NO [Hydroxyurea] (max concentration tested 100000 nM)
0

Look at this compound and give its reported drug sensitivity score. CCCCCCCCc1ccc(CCC(N)(CO)CO)cc1 [Fingolimod] (max concentration tested 10000 nM)
5.22

Given O=C(CCCCCCNC(=O)c1cnc(N(c2ccccc2)c2ccccc2)nc1)NO [Rocilinostat] (max concentration tested 10000 nM) , state its recorded drug sensitivity score.
6.65

Form field: reported drug sensitivity score of NC(=S)N/N=C/c1ncccc1N [Triapine] (max concentration tested 10000 nM)
4.03

Find the recorded drug sensitivity score belonging to CN(C)CCN1C(=O)c2cccc3cc(N)cc(c23)C1=O [Amonafide] (max concentration tested 10000 nM) and report it.
6.87

drug sensitivity score lookup needed for O=C(CCCCCCC(=O)Nc1ccc([C@H]2O[C@@H](CSc3nc(-c4ccccc4)c(-c4ccccc4)o3)C[C@@H](c3ccc(CO)cc3)O2)cc1)NO [Tubacin] (max concentration tested 10000 nM) , thanks.
0.27

----------
System: KHYG-1 (IL-2 2.5 ng/mL);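 also: normalised to DMSO-only wells as negative and benzethonium chloride as positive control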
Assay: percent inhibition of viability; higher = more inhibition
Details: 72 h; 1000 nM
Answer each item with its documented percent inhibition of viability.
Field: numeric (%). Do not append units.

# percent inhibition of viability lookup, item Cn1cc(C2=C(c3cn(C4CCN(Cc5ccccn5)CC4)c4ccccc34)C(=O)NC2=O)c2ccccc21 [Enzastaurin] (max concentration tested 10000 nM)
15.6

Which percent inhibition of viability value is on record for C[C@@H]1C[C@H]2[C@@H]3CCC4=CC(=O)C=C[C@]4(C)[C@@]3(F)[C@@H](O)C[C@]2(C)[C@@]1(O)C(=O)CO [Dexamethasone] (max concentration tested 10000 nM) ?
50.3

For O=P1(NCCCl)OCCCN1CCCl (stereo not drawn) [Ifosfamide] (max concentration tested 10000 nM) , what is its reported percent inhibition of viability?
-5.28
